Reference source for all entries: patent EP4553080A1

biological target: nsp14 methyltransferase from SARS-CoV-2 (Severe acute respiratory syndrome coronavirus 2); assay: Nsp14 MTase activity inhibition in vitro (EchoMS assay); assay type: biochemical; conditions: recombinant nsp14 protein expressed in E. coli; dose-response curve
pIC50: −log10 of the molar value.
Readout type: pIC50

Guide cases for pIC50, answers given:
Compound: Cc1noc(-c2ccc(N)cc2)c1CSC[C@H]1O[C@@H](n2ccc3c(N)ncnc32)[C@H](O)[C@@H]1O
Readout type: pIC50
Assay value: 7.00 to 7.52

Compound: Cc1noc(-c2ccccc2)c1CSC[C@H]1O[C@@H](n2cc(I)c3c(N)ncnc32)[C@H](O)[C@@H]1O
Readout type: pIC50
Assay value: 7.00 to 7.52

Compound: Cc1ncnc(-c2ccccc2)c1CSC[C@H]1O[C@@H](n2ccc3c(N)ncnc32)[C@H](O)[C@@H]1O [Compound 56c]
Readout type: pIC50
Assay value: 6.30 to 7.00

query: Short answer please: pIC50, nsp14 methyltransferase from SARS-CoV-2 (Severe acute respiratory syndrome coronavirus 2), entry Cc1ccnc(-c2ccccc2)c1CSC[C@H]1O[C@@H](n2ccc3c(N)ncnc32)[C@H](O)[C@@H]1O [Compound 62c]
result: 5.70 to 6.30

query: Do the same for Cc1noc(-c2ccccc2)c1CSC[C@H]1O[C@@H](n2cc(-c3ccc4nc[nH]c4c3)c3c(N)ncnc32)[C@H](O)[C@@H]1O please
result: 7.00 to 7.52

query: Do the same for COc1ccc(-c2cn([C@@H]3O[C@H](CSCc4c(C)noc4-c4ccccc4)[C@@H](O)[C@H]3O)c3ncnc(N)c23)cc1OC [Compound 147b] please
result: 7.52 to 8.00

query: Do the same for Cc1noc(-c2ccccc2)c1CSC[C@H]1O[C@@H](n2cc(C3=CCC(C#N)CC3)c3c(N)ncnc32)[C@H](O)[C@@H]1O (stereo partly shown) [Compound 141b] please
result: 7.52 to 8.00

query: Do the same for Cc1ncnc(-c2ccc3c(c2)OCO3)c1CSC[C@H]1O[C@@H](n2ccc3c(N)ncnc32)[C@H](O)[C@@H]1O [Compound 102c] please
result: 7.00 to 7.52

query: Do the same for Nc1ncnc2c1ccn2[C@@H]1O[C@H](CSCc2cnsc2-c2ccccc2)[C@@H](O)[C@H]1O [Compound 103c] please
result: 5.70 to 6.30

query: Do the same for Cc1noc(-c2ccccc2)c1CSC[C@H]1O[C@@H](n2cc(-c3ccc(-c4ccccn4)cc3)c3c(N)ncnc32)[C@H](O)[C@@H]1O please
result: 7.00 to 7.52
